System: S. setubal
Assay: Antibacterial assay of isolated compounds, S. setubal
Format: cell-based
Conditions: cefixime positive control

[
  {
    "compound": "COC(=O)c1ccccc1 [compound 3, methyl benzoate]",
    "unit_label": "mm",
    "antibacterial ZOI, S. setubal": 13
  },
  {
    "compound": "C[C@H]1[C@H](C)CC[C@]2(C(=O)O)CC[C@]3(C)C(=CC[C@@H]4[C@@]5(C)CC[C@H](O)C(C)(C)[C@@H]5CC[C@]43C)[C@H]12 [compound 5, 3β-hydroxy-urs-12-en-28-oic acid]",
    "unit_label": "mm",
    "antibacterial ZOI, S. setubal": 13
  },
  {
    "compound": "CCCCCCCCCCCCCCCCCCCCCCCCCCCCCCO",
    "unit_label": "mm",
    "antibacterial ZOI, S. setubal": 15
  },
  {
    "compound": "O=C(O)c1cccc(O)c1 [compound 6, 3-hydroxybenzoic acid]",
    "unit_label": "mm",
    "antibacterial ZOI, S. setubal": 14
  },
  {
    "compound": "O=C(O)c1ccccc1",
    "unit_label": "mm",
    "antibacterial ZOI, S. setubal": 15
  },
  {
    "compound": "C=C(C)[C@@H]1CC[C@]2(C)CC[C@]3(C)[C@H](CC[C@@H]4[C@@]5(C)CC[C@H](O)C(C)(C)[C@@H]5CC[C@]43C)[C@@H]12",
    "unit_label": "mm",
    "antibacterial ZOI, S. setubal": 12
  }
]

* * *

Tested on: α-amylase
Experiment: α-Amylase inhibition assay
Format: biochemical
Conditions: 10 μL sample, 4 mg/mL in DMSO
Measured amylase inhibition (%) values are reported for all entries that follow.

[
  {
    "compound": "C[C@H]1[C@H](C)CC[C@]2(C(=O)O)CC[C@]3(C)C(=CC[C@@H]4[C@@]5(C)CC[C@H](O)C(C)(C)[C@@H]5CC[C@]43C)[C@H]12 [compound 5, 3β-hydroxy-urs-12-en-28-oic acid]",
    "amylase inhibition (%)": 48.9
  },
  {
    "compound": "CCCCCCCCCCCCCCCCCCCCCCCCCCCCCCO",
    "amylase inhibition (%)": 29.9
  },
  {
    "compound": "COC(=O)c1ccccc1 [compound 3, methyl benzoate]",
    "amylase inhibition (%)": 26.2
  },
  {
    "compound": "O=C(O)c1ccccc1",
    "amylase inhibition (%)": 36.5
  },
  {
    "compound": "C=C(C)[C@@H]1CC[C@]2(C)CC[C@]3(C)[C@H](CC[C@@H]4[C@@]5(C)CC[C@H](O)C(C)(C)[C@@H]5CC[C@]43C)[C@@H]12",
    "amylase inhibition (%)": 16.0
  },
  {
    "compound": "O=C(O)c1cccc(O)c1 [compound 6, 3-hydroxybenzoic acid]",
    "amylase inhibition (%)": 31.5
  }
]

* * *

System: lipase
Test: Lipase inhibition assay
Type: biochemical
Details: 50 μL sample, 4 mg/mL in DMSO
experimental_readout: lipase inhibition (%)

[
  {
    "molecule": "COC(=O)c1ccccc1 [compound 3, methyl benzoate]",
    "experimental_readout": "lipase inhibition (%)",
    "test_value": "50.3 ± 0.5%"
  },
  {
    "molecule": "CCCCCCCCCCCCCCCCCCCCCCCCCCCCCCO [compound 2, 1-triacontanol]",
    "experimental_readout": "lipase inhibition (%)",
    "test_value": "50.8 ± 0.9%"
  },
  {
    "molecule": "O=C(O)c1ccccc1 [compound 4, benzoic acid]",
    "experimental_readout": "lipase inhibition (%)",
    "test_value": "58.9 ± 0.7%"
  },
  {
    "molecule": "C[C@H]1[C@H](C)CC[C@]2(C(=O)O)CC[C@]3(C)C(=CC[C@@H]4[C@@]5(C)CC[C@H](O)C(C)(C)[C@@H]5CC[C@]43C)[C@H]12 [compound 5, 3β-hydroxy-urs-12-en-28-oic acid]",
    "experimental_readout": "lipase inhibition (%)",
    "test_value": "76.6 ± 0.8%"
  },
  {
    "molecule": "C=C(C)[C@@H]1CC[C@]2(C)CC[C@]3(C)[C@H](CC[C@@H]4[C@@]5(C)CC[C@H](O)C(C)(C)[C@@H]5CC[C@]43C)[C@@H]12 [compound 1, lup-20(29)-en-3β-ol]",
    "experimental_readout": "lipase inhibition (%)",
    "test_value": "84.0 ± 0.8%"
  },
  {
    "molecule": "O=C(O)c1cccc(O)c1 [compound 6, 3-hydroxybenzoic acid]",
    "experimental_readout": "lipase inhibition (%)",
    "test_value": "51.9 ± 0.7%"
  }
]
